system: CP266; experiment: qHTS profiling for inhibitors of Plasmodium falciparum proliferation (AID 504749); further: nearly all actives have a fitted effect of over 60% in size; settings: P. falciparum in erythrocytes, SYBR Green DNA, 72 h; series mostly up to 12.8 µM
Inconclusive results are not listed. Active and inactive are the calls of the source. The call rests on the fitted dose curve; in most records, active means well fitted inhibition curve with a large enough effect; inconclusive means small, poorly fitted or top-dose-only effect; inactive means flat fitted curve, though single readings scatter.
Could you please pick one outcome from this set? TRUE (active), FALSE (inactive)

Illustrative cases are given below, each with its answer.
| COMPOUND | LABEL |
| --- | --- |
| Cc1ncc([N+](=O)[O-])n1C[C@H](O)CCl | FALSE |
| CC1(C)S[C@H]2C(NC(=O)[C@@H](N)c3ccc(O)cc3)C(=O)N2[C@@H]1C(=O)O (stereo partly specified) | FALSE |
| C[C@H](C(=O)O)c1cccc(Oc2ccccc2)c1 | FALSE |
| CC(C)(C)NC[C@H](O)COc1cccc2c1C[C@@H](O)[C@@H](O)C2 | FALSE |
| CCC(=O)[C@@]1(C)[C@H](C)C[C@@H]2[C@@H]3CCC4=CC(=O)C=C[C@@]4(C)[C@H]3[C@H](O)C[C@]21C | FALSE |

input: Record request — test call for "O=C1O[C@@H]([C@@H](O)CO)[C@@H](O)[C@H]1O"
output: FALSE

input: What did the test return for CO[C@]1(NC(=O)C2SC(=C(C(N)=O)C(=O)O)S2)C(=O)N2C(C(=O)O)=C(CSc3nnnn3C)CS[C@H]21 (stereo partly specified) ?
output: FALSE

input: Query: recorded result category for "NC(=O)c1ccc[n+]([C@@H]2O[C@H](COP(=O)([O-])OP(=O)(O)OC[C@H]3O[C@@H](n4cnc5c(N)ncnc54)[C@@H](O)[C@@H]3O)[C@@H](O)[C@@H]2O)c1" in this test
output: FALSE

input: Please indicate how the test categorized CC(=O)O[C@@]1(C(C)=O)CCC2C3CC(C)C4=CC(=O)CC[C@@]4(C)C3CC[C@]21C (stereo partly specified) .
output: FALSE

input: What outcome does the record of this test show for "NC[C@@H]1O[C@@H](O[C@H]2[C@H](O)[C@H](O[C@@H]3O[C@H](CO)[C@@H](O)[C@H](N)[C@@H]3O)[C@@H](N)C[C@H]2N)[C@H](N)C[C@@H]1O" ?
output: FALSE

input: Check the results log: what was the call for "CCN1CCC[C@@H](OC(=O)C(c2ccccc2)c2ccccc2)C1" ?
output: FALSE

input: // param item: COc1cc(C2c3cc4c(cc3C(O[C@@H]3OC5COC(c6cccs6)OC5C(O)C3O)C3COC(=O)C23)OCO4)cc(OC)c1O (stereo partly specified) ; yields the recorded call
output: TRUE

input: What was the test verdict on CNC1CC(N)[C@H](O)[C@@H](O[C@@H]2OC(CO)C3OC4(OC(C(N)CO)C(O)C(O)C4O)O[C@@H]3[C@H]2O)C1O (stereo partly specified) ?
output: FALSE

input: Which outcome did this test record for the compound C=Cc1c(C)/c2[n-]/c1=C\c1[n-]c(c(CC)c1C)/C=c1\[n-]c3c(c1C)C(=O)C(C(=O)[O-])C=3c1[n-]c(c(C)c1CCC(=O)[O-])\C=2.[Cu].[Na+].[Na+] (stereo unspecified) ?
output: FALSE

input: Tell me the recorded outcome of this test for "CC(=C(CCOP(=O)(O)O)SC(=O)c1ccccc1)N(C=O)Cc1cnc(C)nc1N" .
output: FALSE

input: // outcome(item) with item = "CC(=O)O[C@]1(C(C)=O)CC[C@@H]2[C@@H]3C=C(C)C4=CC(=O)CC[C@@]4(C)[C@H]3CC[C@]21C"
output: FALSE

---

Test system: CP286
Assay: qHTS profiling for inhibitors of Plasmodium falciparum proliferation (AID 504749); further: nearly all actives have a fitted effect of over 60% in size
Settings: P. falciparum in erythrocytes, SYBR Green DNA, 72 h; series mostly up to 12.8 µM
Experimental: NIH National Institute of Allergy and Infectious Diseases [NIAID] NIH Chemical Genomics Center [NCGC] […] Because mature erythrocytes lack DNA, only Plasmodium-derived DNA is detected. NCGC Assay Protocol Summary: The SYBR Green viability assay was adapted from a method described previously (Plouffe et al., 2008). […] The following morning, fluorescence intensity at 485(14) nm excitation and 535(25) nm emission wavelengths was measured on an EnVision (Perkin Elmer) plate reader. […]
Records with an inconclusive call do not appear. Active and inactive are the calls of the source. Calls follow the shape of the dose curve; as a rule, active = well fitted inhibition curve with a large enough effect; inconclusive = small, poorly fitted or top-dose-only effect; inactive = flat fitted curve, though single readings scatter.
Classes to choose from: active, inactive

| COMPOUND | LABEL |
| --- | --- |
| COc1cc2nc(N3CCN(C(=O)[C@@H]4CCCO4)CC3)nc(N)c2cc1OC | inactive |
| CC[C@](C)(CN(C)C)OC(=O)c1ccccc1 | inactive |
| NC[C@@H]1O[C@@H](O[C@H]2[C@H](O)[C@H](O[C@@H]3O[C@H](CO)[C@@H](O)[C@H](N)[C@@H]3O)[C@@H](N)C[C@H]2N)[C@H](N)C[C@@H]1O | inactive |

input: Recorded test call requested for CC1(C)OC2CO[C@]3(COS(N)(=O)=O)OC(C)(C)OC3C2O1 (stereo partly drawn)
output: inactive

input: Name the outcome recorded for CCC1OC(=O)C(C)[C@@H](O[C@H]2C[C@@](C)(OC)C(O)C(C)O2)C(C)[C@@H](O[C@@H]2OC(C)CC(N(C)C)C2O)[C@@](C)(O)CC(C)C(=O)[C@@H](C)C(O)[C@]1(C)O (stereo partly drawn) in the assay.
output: inactive

input: In this assay, the call recorded for COc1ccc(CC(N)C(=O)NC2C(CO)OC(n3cnc4c(N(C)C)ncnc43)C2O)cc1 (stereo not drawn) was what?
output: active

input: Assay outcome for "CCN1CCC[C@@H](OC(=O)C(c2ccccc2)c2ccccc2)C1" : what was it?
output: inactive

input: Fill in: this test's call for "CCCCCCCCCc1ccc(OCCOCCOCCOCCOCCOCCOCCOCCOCCO)cc1" is ___
output: inactive

input: GET /call?item= "COc1cc(N[C@@H](C)CCCN)c2ncccc2c1" returns the recorded outcome of this test.
output: active

input: Hi team, can someone confirm the assay call for "C[N+]12CCC(CC1)[C@@H](OC(=O)C(O)(c1ccccc1)c1ccccc1)C2" ?
output: inactive

input: Returns: the outcome recorded for CC(C)=CCC[C@](C)(O)C1CC=C(C)CC1 (stereo partly drawn) in this assay.
output: inactive

input: Hi, do you know how "C[C@@H]1C[C@H]2[C@@H]3C[C@H](F)C4=CC(=O)C=C[C@@]4(C)[C@]3(F)[C@H](O)C[C@]2(C)[C@@]1(O)C(=O)CO" came out in this test?
output: inactive

---

target: 3',5'-cyclic-AMP phosphodiesterase 4B (Homo sapiens); experiment: qHTS Assay for Inhibitors of PDE-IV (AID 607); details: HEK293 ACTOne CNG channel cells, membrane potential fluorescence; series mostly up to 22.9 µM
Results filed as inconclusive are left out. Activity calls are given as the source filed them. Calls follow the shape of the dose curve; as a rule, active = well fitted activation curve with a large enough effect in the main read-out, with a control signal flat (not every such curve was filed as active); inconclusive = small, poorly fitted or top-dose-only effect, or effect the other way, or a change in a side signal; inactive = flat fitted curve, though single readings scatter.
REPORTED_METRIC: outcome

Example compounds with recorded outcome:
| LINE_NOTATION | outcome |
| --- | --- |
| NC(=O)c1ncn([C@H]2O[C@@H](CO)[C@@H](O)[C@@H]2O)n1 | inactive |
| COc1cc2cc3c4cc(OC)c(OC)cc4cc[n+]3c(C)c2cc1OC | inactive |
| CC(=O)[C@H]1CC[C@@H]2[C@H]3CC=C4C[C@@H](O)CC[C@]4(C)[C@H]3CC[C@]12C | inactive |
| CS(=O)(=O)c1ccc([C@H](O)[C@H](CF)NC(=O)C(Cl)Cl)cc1 | inactive |
| O=C(Nc1ccccc1)OC[C@H](CN1CCCCC1)OC(=O)Nc1ccccc1 | inactive |

input: Field request: outcome | item: "CN(C)CCO[C@@H](c1ccc(Cl)cc1)c1ccccn1"
output: inactive

input: Return reported outcome; argument: "NCC[C@H](O)C(=O)N[C@H]1C[C@@H](N)[C@@H](O[C@H]2O[C@@H](CN)[C@@H](O)[C@@H](O)[C@@H]2O)[C@@H](O)[C@@H]1O[C@H]1O[C@@H](CO)[C@@H](O)[C@@H](N)[C@@H]1O"
output: inactive

input: Record request: outcome value, item "N[C@H](Cc1cc(I)c(Oc2ccc(O)c(I)c2)c(I)c1)C(=O)O"
output: inactive

input: Fill in the blank: the reported outcome of "C#C[C@]1(O)CC[C@@H]2[C@H]3CCC4=CCCC[C@@H]4[C@@H]3CC[C@@]21C" is ____.
output: inactive

input: Recorded outcome of "CNC[C@H](O)[C@H](O)[C@H](O)[C@H](O)CO" , please.
output: inactive

---

biological target: Cytochrome P450 1A2 (Homo sapiens); assay: p450-cyp1a2 (AID 410); details: recombinant CYP1A2, luciferin-ME demethylation, luminescence; series mostly up to 25.6 µM
Inconclusive results are not listed. Activity calls are given as the source filed them. Calls come from the whole dose curve.
The reply should name one outcome from active, inactive

input: Please indicate how the test categorized "CC(=O)[C@H]1CC[C@@H]2[C@H]3CC=C4C[C@@H](O)CC[C@]4(C)[C@H]3CC[C@]12C" .
output: inactive

input: Tell me the assay call for "C[N+]1(C)C[C@@H](O)C[C@@H]1C(=O)[O-]" please.
output: inactive

input: Given "C[C@]1(OC(=O)/C=C\c2ccccc2)C[C@@H](O)[C@@]2(O)C=CO[C@@H](O[C@H]3O[C@@H](CO)[C@@H](O)[C@@H](O)[C@@H]3O)[C@H]21" , state the outcome it received in this test.
output: inactive

input: What is the recorded call for this compound in the test? "CC=C(/C(=C/C)c1ccc(O)cc1)c1ccc(O)cc1"
output: active

input: State the result this test recorded for "C[C@@]12CC[C@@H]3c4ccc(O)cc4CC[C@H]3[C@H]1C[C@@H](O)[C@H]2O" .
output: inactive

input: // return assay outcome for "Cn1c(-c2ccc3c(c2)OCO3)cc(=O)c2ccccc21"
output: active

input: // param item: "O=c1[nH]c(=O)n([C@@H]2C[C@H](O)[C@H](CO)O2)cc1C(F)(F)F" ; yields the recorded call
output: inactive

input: # lookup: test call for "NC[C@@H]1O[C@H](O[C@@H]2[C@H](O[C@@H]3O[C@H](CO)[C@@H](COC[C@H]4O[C@@H](CN)[C@@H](O)[C@@H](O)[C@@H]4N)[C@@H]3O)[C@@H](O)[C@@H](N)C[C@H]2N)[C@@H](N)[C@H](O)[C@@H]1O"
output: inactive
